Tested on: HEK293
Assay name: Cytotoxic Profiling of Annotated Libraries Using Quantitative High-Throughput Screening (AID 1296008); further: nearly all actives have a fitted effect of over 60% in size
Experimental conditions: Five cell lines viability, CellTiter-Glo ATP luminescence, 48-72 h
Inconclusive results are not listed. Active and inactive are the calls of the source. The call rests on the fitted dose curve; in most records, active means well fitted inhibition curve with a large enough effect; inconclusive means small, poorly fitted or top-dose-only effect; inactive means flat fitted curve, though single readings scatter.
A correct response names exactly one class from class 1 = active, class 0 = inactive

Sample answers from the record:
C=C1[C@@H](C)C2[C@H](Cc3ccccc3)NC(=O)[C@@]23C(/C=C/C[C@H](C)C[C@@](C)(O)/C=C/[C@@H]3OC(C)=O)[C@@H]1O (stereo not given in full)    class 1
CN(C)c1cc2c(cc1Sc1nc3c(N)nccc3n1CCNCC(C)(C)C)OCO2    class 1

## Task Write down the call the test reported for this compound. Item: COc1ccc(C(C)(C)C)cc1CN[C@H]1C2CCN(CC2)[C@H]1C(c1ccccc1)c1ccccc1
## Result class 1

## Task Quick one: C[C@]12CC[C@H](O)C[C@@]1(O)CC[C@@H]1[C@@H]2CC[C@]2(C)[C@@H](c3ccc(=O)oc3)CC[C@]12O
## Result class 1

## Task Quick one: CO[C@H]1[C@@H](O)[C@@H](C)O[C@@H](O[C@@H]2C=C3C(OC(C)=O)CC4(O)C(CC[C@]5(C)[C@@H](C6=CC(=O)OC6)CC[C@]45O)[C@@]3(C)CC2)[C@@H]1O (stereo not given in full)
## Result class 1

## Task Quick one: C[C@@H]1CN(Cc2ccc(F)cc2)CCN1C(=O)COc1ccc(Cl)cc1NC(N)=O
## Result class 1

## Task Quick one: Nc1ncnc2c1ncn2[C@@H]1O[C@@H]2COP(O)(=S)O[C@H]2[C@H]1O (stereo not given in full)
## Result class 0

## Task Quick one: C[C@H](CCC(=O)O)C[C@H](C)C[C@H](C)C(=O)/C=C(\O)[C@H](C)C[C@H](C)C/C=C/[C@@H](C)[C@@H](O)[C@@H](C)[C@@H](O)C[C@@H]1CC[C@@](C)([C@H]2CC[C@@](C)([C@@H](C)O)O2)O1
## Result class 1

## Task Quick one: Cc1sc2c(c1C)C(c1ccc(Cl)cc1)=NC(CC(=O)OC(C)(C)C)c1nnc(C)n1-2 (stereo not given)
## Result class 1

## Task Quick one: COC1CC(O[C@H]2CC[C@@]3(C)C(CCC4C3CC[C@]3(C)C(C5=CC(=O)OC5)CCC43O)C2)OC(C)C1OC1OC(COC2OC(CO)C(O)C(O)C2O)C(O)C(O)C1O (stereo not given in full)
## Result class 1

## Task Quick one: C=C(CO)[C@@]12O[C@@H]1[C@@]1(C)C(=CC2=O)CC[C@@H](O)[C@@H]1C
## Result class 1

## Task Quick one: COc1cc(O)c2c(c1)CCC[C@@H](O)[C@H](O)C(=O)/C=C\C[C@H](C)OC2=O
## Result class 1

## Task Quick one: CN1CN(c2ccccc2)C2(CCN(CCCC(=O)c3ccc(F)cc3)CC2)C1=O
## Result class 1

## Task Quick one: C#C[C@]1(O)CC[C@H]2[C@@H]3CC[C@H]4Cc5nc6nc7ccccc7n6cc5C[C@]4(C)[C@H]3CC[C@@]21C
## Result class 1

## Task Quick one: CN(CC[C@H](N)CC(=O)N[C@H]1C=C[C@@H](n2ccc(N)nc2=O)O[C@@H]1C(=O)O)C(=N)N
## Result class 0

---

Assay name: qHTS for Inhibitors of the Functional Ribonucleoprotein Complex (vRNP) of Lassa (LASV) Arenavirus: LASV Primary Screen - GLuc reporter signal (AID 1347082); further: nearly all actives have a fitted effect of over 60% in size
Experimental conditions: LASV minigenome vRNP, Gaussia luciferase reporter; series mostly up to 57.5 µM
Results filed as inconclusive are left out. Calls of active or inactive are those of the source. The call rests on the fitted dose curve; tested in HEK293 reporter line.
A correct response names exactly one class from active, inactive

Sample answers from the record:
CCCCCCCCCCCC(CC1OC(=O)C1CCCCCC)OC(=O)C(CC(C)C)NC=O (stereo not drawn)    inactive
c1cnc2c(-c3nccc4c3[nH]c3ccccc34)cccc2c1    inactive
O=CCCc1ccccc1    inactive
O=C1c2c(O)cc(O)cc2O[C@H](c2ccc(O)c(O)c2)[C@@H]1O    inactive
CCCO    inactive

## Task Write down the call the test reported for this compound. Item: CCCCCCCCCCCCCCCCCC(=O)OC(CC(=O)O)C[N+](C)(C)C (stereo not drawn)
## Result inactive

## Task Quick one: NC(=NCc1ccccc1)NC(=O)c1nc(Cl)c(N)nc1N
## Result inactive

## Task Quick one: COc1ccc(C(=O)CC2(O)C(=O)Nc3c(Cl)ccc(Cl)c32)cc1 (stereo not drawn)
## Result active

## Task Quick one: C[C@H]1O[C@H](O[C@H]2[C@H](O)[C@@H](O)[C@@H](O[C@H]3[C@H](O)[C@@H](O)C(O)O[C@H]3CO)O[C@H]2CO)[C@H](O)[C@@H](O)[C@H]1N[C@H]1C=C(CO)[C@@H](O)[C@H](O)[C@@H]1O (stereo partly drawn)
## Result inactive

## Task Quick one: COc1cccc(OC)c1OCCNCC1COc2ccccc2O1 (stereo not drawn)
## Result inactive

## Task Quick one: COc1cc2nccc(Oc3ccc(NC(=O)Nc4ccc(F)cc4F)c(F)c3)c2cc1OC
## Result inactive

## Task Quick one: C[C@H](CCC(=O)NCC(=O)O)[C@H]1CC[C@H]2[C@@H]3[C@H](O)C[C@@H]4C[C@H](O)CC[C@]4(C)[C@H]3C[C@H](O)[C@]12C
## Result inactive

## Task Quick one: CCN1C[C@]2(CO)CC[C@H](OC)[C@@]34C5C[C@H]6[C@H](OC)C5[C@](O)(C[C@H]6OC)[C@@](O)(C(OC)C23)[C@@H]14 (stereo partly drawn)
## Result inactive

## Task Quick one: O[C@@H]1COC2[C@@H](O)CO[C@@H]21 (stereo partly drawn)
## Result inactive

## Task Quick one: CCC(NC(C)C)C(O)c1ccc(O)c(O)c1 (stereo not drawn)
## Result inactive

## Task Quick one: CC(=O)OC[C@H]1O[C@@H](O[C@H]2C[C@]3(C)C(C[C@@H](O)C4C([C@]5(C)CC[C@@H](C(C)(C)O)O5)CC[C@]43C)[C@@]3(C)CC[C@H](O)C(C)(C)C23)[C@H](O[C@@H]2O[C@@H](C)[C@H](O)[C@@H](O)[C@H]2O)[C@@H](O)[C@@H]1O (stereo partly drawn)
## Result inactive

## Task Quick one: C[C@]12CCC(=O)C=C1CC[C@@H]1[C@H]2[C@@H](O)C[C@@]2(C)[C@H]1CC[C@]2(O)C(=O)CO
## Result inactive

## Task Quick one: CCCCCC/C=C/C=O
## Result inactive

---

Test system: CASKI
Assay name: Primary qHTS to identify gynecologic anti-cancer compounds using libraries of approved drugs and bioactive compounds (AID 1345084); further: nearly all actives have a fitted effect of over 55% in size
Experimental conditions: Gynecologic cancer cell panel viability, ATPlite luminescence, 48 h; series mostly up to 57.5 µM
Records with an inconclusive call do not appear. Calls of active or inactive are those of the source. The call rests on the fitted dose curve; in most records, active means well fitted cell-killing curve with a large enough effect; inconclusive means small, poorly fitted or top-dose-only effect, or effect the other way; inactive means flat fitted curve, though single readings scatter.
A correct response names exactly one class from active, inactive

Sample answers from the record:
CC(=O)C1CCC2C3CCC4C[C@@H](O)CCC4(C)C3CCC12C (some centres not stated)    inactive
c1ccc(C2(c3ccccc3)OC[C@@H]([C@H]3CCCCN3)O2)cc1    inactive
CN1C(=O)N(c2ccc(C#N)c(C(F)(F)F)c2)C(=O)[C@@]1(CO)c1ccccc1    inactive

## Task Write down the call the test reported for this compound. Item: CN1CCc2cc3c(cc2C1C1OC(=O)c2c1ccc1c2OCO1)OCO3 (configuration not stated)
## Result inactive

## Task Quick one: CN=C(NS(=O)(=O)c1ccc(Cl)cc1)N1C[C@H](c2ccccc2)C(c2ccc(Cl)cc2)=N1
## Result inactive

## Task Quick one: CCC1NC(=O)C2C(Cl)C(Cl)CN2C(=O)C(CC)NC(=O)CC(c2ccccc2)NC(=O)C(CO)NC1=O (configuration not stated)
## Result inactive

## Task Quick one: CO[C@H]1[C@H](O)[C@H](O[C@H]2CC[C@]3(C=O)C4CC[C@]5(C)[C@H](C6=CC(=O)OC6)CC[C@]5(O)C4CC[C@@H]3C2)O[C@@H](C)[C@@H]1O (some centres not stated)
## Result active

---

Assay name: Primary qHTS to identify inhibitors of SARS-CoV-2 cell entry (AID 1645846); further: nearly all actives have a fitted effect of over 45% in size
Experimental conditions: SARS-CoV-2 pseudovirus cell entry assay, luminescence; series mostly up to 57.1 µM
Records with an inconclusive call do not appear. Activity calls are given as the source filed them. Calls follow the shape of the full dose curve.
A correct response names exactly one class from yes (active), no (inactive)

Sample answers from the record:
NCC1CCC(C(=O)O)CC1 (stereo not given)    no
O=c1cc(-c2ccccc2)oc2cc(O)c(O)c(O)c12    no
CCCCCCCCc1ccc(CCC(N)(CO)CO)cc1    yes

## Task Write down the call the test reported for this molecule. Item: Cc1ccc(NC(=O)c2cccc(N(C)C)c2)cc1NC(=O)c1ccc(O)cc1
## Result no

## Task Quick one: OC1CCC(Nc2ncc3nc(Nc4c(F)cc(F)cc4F)n([C@@H]4CCOC4)c3n2)CC1 (stereo not given in full)
## Result no

## Task Quick one: C[C@H]1[C@@H](OC(=O)CCC(=O)O)O[C@@H]2O[C@@]3(C)CC[C@@H]4[C@H](C)CC[C@@H]1[C@@]24OO3
## Result yes

## Task Quick one: C=CC(=O)N1CCc2ccc(-n3c(=O)ccc4cnc5ccc(-c6cnn(C)c6)cc5c43)cc21
## Result yes

## Task Quick one: NC(=O)c1cccc2[nH]c(-c3ccc([C@H]4CCCN4)cc3F)nc12
## Result yes

## Task Quick one: Cc1ccn(-c2ccc(-c3ncco3)cc2)c(=O)c1-c1ccc2nc(N)ncc2c1
## Result no

## Task Quick one: COc1ccc2c3c1O[C@H]1C[C@@H](O)C=C[C@@]31CCN(C)C2
## Result no
